System: Saccharomyces cerevisiae
Test: Drug uptake in Saccharomyces cerevisiae ADMDR1 expressing Candida albicans MDR1 efflux pump at 200 uM pretreated for 10 mins measured after 60 mins by fluorescamine staining
Type: ADME, organism-based
Conditions: in vivo, 1 h
Non-standard residues stand in square brackets, D forms with d. Residues, ends and D or L forms follow the SMILES beside them. *: point of attachment. Phe(3-F) = N[C@@H](Cc1cccc(F)c1)C(=O)O; Ethyl(2-NH2) = NCC*
Measured log10 of Drug uptake, listed per entry.
metric: log10 of Drug uptake (log10 of the value in nmol/min/mg)

INSERT INTO measurements (compound, number) VALUES
  ('CC(C)C[C@H](NC(=O)[C@H](CC(C)C)NC(=O)[C@H](CC(C)C)NC(=O)[C@@H](N)COCCN)C(=O)NCC(=O)O (H-S(Ethyl(2-NH2))LLLG-OH)', -0.55),
  ('NC(Cc1cccc(F)c1)C(=O)O (stereo not given)', 0.21),
  ('NC(CC(=O)NO)C(=O)O (stereo not given)', 0.10),
  ('CC(C)C[C@H](NC(=O)[C@@H](N)COCCN)C(=O)NCC(=O)O', -0.06),
  ('C[C@@H]([C@H](N)C(=O)N[C@H](C(=O)O)[C@H]1O[C@@H](n2ccc(=O)[nH]c2=O)[C@H](O)[C@@H]1O)[C@H](O)c1ccc(O)cn1', -0.49),
  ('[N-]=[N+]=CC(=O)CC[C@H](N)C(=O)O', 0.30),
  ('CSCC[C@H](NC(=O)[C@@H](N)CCSC)C(=O)N[C@@H](Cc1cccc(F)c1)C(=O)O (H-Met-Met-[Phe(3-F)]-OH)', -0.17),
  ('C[C@H](N)C(=O)N[C@@H](C)C(=O)O (H-Ala-Ala-OH)', 0.41),
  ('CC(C)C[C@H](N)C(=O)N[C@@H](Cc1cccc(F)c1)C(=O)O (H-Leu-[Phe(3-F)]-OH)', -0.08),
  ('C[C@H](N)C(=O)N[C@@H](C)C(=O)N[C@@H](C)C(=O)O', 0.46);
